Target: T1, FLAG-tagged wild-type human angiotensin II type I receptor (FLAG-AT1R) (Homo sapiens, UniProt P30556)
T1 construct: angiotensin II type I receptor (AT1R), human, wild type; The signalling assays used FLAG-AT1R in HEK293T or HTLA cells; also called WT receptor; source: Expi293F TetR, transfected, purified in LMNG/CHS (M1-αFLAG resin, SEC); also on intact Expi293F TetR cells stably expressing FLAG-AT1R under a tetracycline-inducible promoter; not shown: FLAG, N-terminal, kept
T1 sequence (P30556 whole entry): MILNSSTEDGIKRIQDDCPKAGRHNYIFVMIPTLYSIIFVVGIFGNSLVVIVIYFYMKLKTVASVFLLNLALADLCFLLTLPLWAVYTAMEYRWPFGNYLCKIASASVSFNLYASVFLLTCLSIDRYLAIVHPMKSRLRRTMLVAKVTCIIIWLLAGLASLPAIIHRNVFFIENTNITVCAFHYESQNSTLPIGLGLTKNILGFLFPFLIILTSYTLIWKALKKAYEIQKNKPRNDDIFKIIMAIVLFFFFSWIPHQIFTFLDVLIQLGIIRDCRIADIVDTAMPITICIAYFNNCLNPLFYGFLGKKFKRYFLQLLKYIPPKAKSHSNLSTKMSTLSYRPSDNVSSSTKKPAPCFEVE
Experiment: flow cytometry on cells; purified nanobody (single point 250 or 500 nM, or titrated) on Expi293F TetR cells expressing FLAG-AT1R preincubated with 10 μM losartan at 4 °C for 30 min; detected with αV5-AlexaFluor647; 20 mM Hepes pH 7.4, 150 mM NaCl, 0.1% BSA
Details: one partner purified
observed-property: binding result

| binder | binding result |
| --- | --- |
| AT205 (VHH, synthetic nanobody AT205; source: E. coli BL21(DE3), periplasm, purified (Ni-NTA); not shown: V5, C-terminal, kept) VHH: QVQLQESGGGLVQAGGSLRLSCAASGYIFYDSVMGWYRQAPGKEREFVAAIAAGSSTNYADSVKGRFTISRDNAKNTVYLQMNSLKPEDTAVYYCGEYYNWLHQYWGQGTQVTVSS | binds |
| AT206 (VHH, synthetic nanobody AT206; also in the deposited structures; also called parent clone of AT118-AT206; source: E. coli BL21(DE3), periplasm, purified (Ni-NTA); not shown: V5, C-terminal, kept) VHH: QVQLQESGGGLVQAGGSLRLSCAASGSISYYRMGWYRQAPGKEREFVAGIGVGTTTNYADSVKGRFTISRDNAKNTVYLQMNSLKPEDTAVYYCAAYNYFPRSIVYYYVYWGQGTQVTVSS | binds |
| AT207 (VHH, synthetic nanobody AT207; source: E. coli BL21(DE3), periplasm, purified (Ni-NTA); not shown: V5, C-terminal, kept) VHH: QVQLQESGGGLVQAGGSLRLSCAASGYIFTHSSMGWYRQAPGKEREFVAAITVGANTNYADSVKGRFTISRDNAKNTVYLQMNSLKPEDTAVYYCAAYNPFYPVYIYWGQGTQVTVSS | binds |
| AT211 (VHH, synthetic nanobody AT211; source: E. coli BL21(DE3), periplasm, purified (Ni-NTA); not shown: V5, C-terminal, kept) VHH: QVQLQESGGGLVQAGGSLRLSCAASGTISHSAGMGWYRQAPGKERELVAAISGGTITNYADSVKGRFTISRDNAKNTVYLQMNSLKPEDTAVYYCAALGYWRRAGGTYYVVHYYWGQGTQVTVSS | binds |

Next, consider the following binder.
### Prompt Value lookup for binding result; key = AT208 (VHH, synthetic nanobody AT208; source: E. coli BL21(DE3), periplasm, purified (Ni-NTA); not shown: V5, C-terminal, kept) VHH: QVQLQESGGGLVQAGGSLRLSCAASGYIFTRYRMGWYRQAPGKEREFVAAIGDGGTTNYADSVKGRFTISRDNAKNTVYLQMNSLKPEDTAVYYCAAYYVSRPNYGTIYVYWGQGTQVTVSS
### Response binds

Measured values drawn from paper PMC11929449 for this set.
